FYI, the data here is from paper PMC5613772.

# Assay target: L. donovani Gcs full length (GcsF, LdGcs, Gcs) (Leishmania donovani, UniProt Q67BG3, R498A)
# Test description: biochemical
Listed below: Kd values for each entry.
The reply should contain only the number, in mM.

Molecule: N[C@@H](CCC(=O)O)C(=O)O [L-Glutamate]
Kd / mM: 0.89

Would you kindly look at the next entry?
QUERY: Which Kd is reported for this molecule? Nc1ncnc2c1ncn2[C@@H]1O[C@H](COP(=O)(O)OP(=O)(O)OP(=O)(O)O)[C@@H](O)[C@H]1O
RESULT: 1.55

* * *

# Assay target: L. donovani Gcs full length (GcsF, LdGcs, Gcs) (Leishmania donovani, UniProt Q67BG3, E99A)
# Test description: biochemical
Observation type: Kd (µM)
The reply should contain only the number, in µM.

Compound: N[C@@H](CCC(=O)O)C(=O)O [L-Glutamate]
Kd, µM: 666

Would you kindly look at the next entry?
QUERY: Which Kd is reported for this compound? Nc1ncnc2c1ncn2[C@@H]1O[C@H](COP(=O)(O)OP(=O)(O)OP(=O)(O)O)[C@@H](O)[C@H]1O
RESULT: 5.8

* * *

# Assay target: L. donovani Gcs full length (GcsF, LdGcs, Gcs) (Leishmania donovani, UniProt Q67BG3, E92A)
# Test description: biochemical
Observation type: Kd (µM)
The reply should contain only the number, in µM.

Guide cases for Kd, answers given:
Compound: N[C@@H](CS)C(=O)O [L-Cysteine]
Assay target: L. donovani Gcs full length (GcsF, LdGcs, Gcs) (Leishmania donovani, UniProt Q67BG3, E92A)
Kd, µM: 115

Compound: Nc1ncnc2c1ncn2[C@@H]1O[C@H](COP(=O)(O)OP(=O)(O)OP(=O)(O)O)[C@@H](O)[C@H]1O [ATP]
Assay target: L. donovani Gcs full length (GcsF, LdGcs, Gcs) (Leishmania donovani, UniProt Q67BG3, E92A)
Kd, µM: 3240

Would you kindly look at the next entry?
QUERY: Which Kd is reported for this compound? N[C@@H](CCC(=O)O)C(=O)O [L-Glutamate]
RESULT: 107
